Data provenance: PubChem BioAssay AID248

Each entry below carries its reported T/C.
- System: L1210 leukemia ip in BDF1 mice, survival T/C
- Test Protocol: NCI In Vivo Anticancer Drug Screen. Data for tumor model L1210 Leukemia (intraperitoneal) in B6D2F1 (BDF1) mice
- Measurement Context: endpoint: mean survival time; dose: 50.0 mg/kg/injection; schedule: Q01DX001 (ip); vehicle: other; higher = longer survival
Toxic doses and inconclusive results are not listed.

As a guide, the following entries are already answered.
| Compound | T/C |
| --- | --- |
| CC(C)CC(CC(C)C)OB(OC(CC(C)C)CC(C)C)OC(CC(C)C)CC(C)C | 96 % of control |
| CN(N=O)C(=O)NC1C=CCCC1 (stereo unspecified) | 97 % of control |
| CCCCCCCCN(CCCCCCCC)NC(C)=O | 96 % of control |

Look up T/C for this compound: O=C(CCCC(=O)N/N=C/c1ccc(Cl)cc1)N/N=C\c1ccc(Cl)cc1
102 % of control

Look up T/C for this compound: Cc1ccc(CCNc2ncnc(Cl)c2N)cc1
88 % of control

Look up T/C for this compound: C=CCc1ccc(OC(=O)Nc2ccc(S(=O)(=O)N3CCCCC3)cc2)c(OC)c1
90 % of control

###

- System: L1210 leukemia ip in BDF1 mice, survival T/C
- Test Protocol: NCI In Vivo Anticancer Drug Screen. Data for tumor model L1210 Leukemia (intraperitoneal) in B6D2F1 (BDF1) mice
- Measurement Context: endpoint: mean survival time; dose: 12.5 mg/kg/injection; schedule: Q04DX003 (ip); vehicle: saline; higher = longer survival
Toxic doses and inconclusive results are not listed.
Property: T/C

As a guide, the following entries are already answered.
| Compound | Result |
| --- | --- |
| CN1Cc2cc3cc(c2O)C[N+](C)(C)Cc2c(Cl)c(c(Cl)c(c2Cl)C[N+](C)(C)C3)C1 | 97 % of control |
| Cc1cc[n+](Cc2ccccc2Cl)c(C)c1 | 102 % of control |
| [N-]=[N+]=NCc1cnccn1 | 98 % of control |
| [NH-]C(Cc1ccccc1)C(=O)O.[NH-]C(Cc1ccccc1)C(=O)O.[Ni+2] (stereo not drawn) | 95 % of control |
| CC(C)=CCC(O)(c1ccccc1)C(C)CN(C)C (stereo not drawn) | 94 % of control |
| C[N+](C)(C)C1CS(=O)C1 (stereo not drawn) | 96 % of control |
| CSc1ccc2c(c1)N(CCCN(C)C)c1ccccc1S2 | 104 % of control |

Look up T/C for this compound: CC[N+](C)(CC)CCCN(C)C(=O)C(c1ccccc1)c1ccccc1
98 % of control

###

- System: L1210 leukemia ip in BDF1 mice, survival T/C
- Test Protocol: NCI In Vivo Anticancer Drug Screen. Data for tumor model L1210 Leukemia (intraperitoneal) in B6D2F1 (BDF1) mice
- Measurement Context: endpoint: mean survival time; dose: 100.0 mg/kg/injection; schedule: Q01DX009 (ip); vehicle: Klucel (hydroxypropylcellulose) (HPC); higher = longer survival
Toxic doses and inconclusive results are not listed.
Each entry below carries its reported T/C.

As a guide, the following entries are already answered.
| Compound | Subject Of Test | Result |
| --- | --- | --- |
| COC(=O)c1ccc(C(=O)O)nc1 | L1210 leukemia ip in BDF1 mice, survival T/C | 104 % of control |
| O=C(Nc1ccccc1)Nc1ccc(Cl)c(Cl)c1 | L1210 leukemia ip in BDF1 mice, survival T/C | 101 % of control |
| c1ccc(/C(=N\Nc2nc3ccccc3s2)c2ccncc2)cc1 | L1210 leukemia ip in BDF1 mice, survival T/C | 89 % of control |
| CCN(CCC#N)C(=S)Nc1cccc2ccccc12 | L1210 leukemia ip in BDF1 mice, survival T/C | 102 % of control |
| CCOC(=O)c1ccc(NC(=O)NCCCCCCNC(=O)Nc2ccc(C(=O)OCC)cc2)cc1 | L1210 leukemia ip in BDF1 mice, survival T/C | 90 % of control |

Look up T/C for this compound: O=C/C(Br)=C\c1ccccc1
105 % of control

Look up T/C for this compound: CC1(C)C=C(C(Br)c2ccc(Cl)cc2)C(=O)c2ccccc21 (configuration not stated)
105 % of control

Look up T/C for this compound: O=C(COc1ccccc1)NCCBr
96 % of control
